Test system: MEK6
Construct: gene MAP2K6
Protocol Conditions: concentration: 1 μM, replicates: in singlicate; n = 1;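 also: KINOMEscan kinase panel screen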
Listed below: %Inh values for each entry.
State just the number; it will be interpreted in %.

INSERT INTO measurements (mol_smiles, measured_endpoint, unit_abbrev, reported_result) VALUES
  ('O=C(NCc1cccs1)c1cc(C(=O)c2c(Cl)cccc2Cl)c[nH]1', '%Inh', '%', 5),
  ('Cc1ccc(-c2ccc3c(ccc4sc5c(c43)NC[C@@H](C)N=C5N(C)C)n2)cn1', '%Inh', '%', 2),
  ('Cc1ccccc1COc1cc(-n2cnc3cc(Cl)ccc32)sc1C(N)=O', '%Inh', '%', 0),
  ('Cc1ccc(Oc2ccc(Nc3ncnc4cc[nH]c34)cc2C)cn1', '%Inh', '%', 9),
  ('O=C(Nc1n[nH]c2cc(-c3ccccc3F)ccc12)C1CC1', '%Inh', '%', 0);

Read the next record carefully.
Specify %Inh for `COC(=O)c1c(-c2ccccc2)c2cc(Br)ccc2c(=O)n1Cc1ccc(NC(=O)CCC(=O)O)cc1` and stop.
21

###

Tested on: YANK2
Construct: gene STK32B
Protocol Conditions: concentration: 1 μM, replicates: in singlicate; n = 1
Measured Endpoint: %Inh (%)
State just the number; it will be interpreted in %.

INSERT INTO results (compound, unit_abbrev, reported_result) VALUES
  ('FC(F)(F)c1ccc(-c2ncn(CCCN3CCOCC3)c2-c2ccncc2)cc1', '%', 1),
  ('O=C(Nc1ccc2c(c1)OCO2)NC1CCN(c2ccnc(NCc3ccc(F)cc3)n2)CC1', '%', 0);

Specify %Inh for COc1ccc(Nc2nccc(N3CCC(NS(=O)(=O)c4ccc(NC(C)=O)cc4)C3)n2)cc1 (stereo not drawn) and stop.
3

Specify %Inh for `CCC(=O)c1c(-c2ccccc2)c2cc(Cl)ccc2c(=O)n1Cc1ccc(C(=O)O)cc1` and stop.
4

Specify %Inh for `CCCNC(=O)Nc1ccc(Oc2ncnc3ccn(C)c23)cc1` and stop.
8

Specify %Inh for `COc1cccc(C2=C(Nc3cccc(C(=O)O)c3)C(=O)NC2=O)c1` and stop.
0

###

Tested on: S6K1
Protocol Conditions: concentration: 1 μM, replicates: in singlicate; n = 1
Measured Endpoint: %Inh (%)
State just the number; it will be interpreted in %.

INSERT INTO results (compound, unit_abbrev, reported_result) VALUES
  ('COc1cccc(C2=C(N(C)c3ccccc3)C(=O)NC2=O)c1 [SB-334865]', '%', 10),
  ('Cc1nn2c(=O)cc(N3CCOCC3)nc2n1Cc1cccc(Cl)c1Cl [GSK2342769]', '%', 1);

Specify %Inh for Cc1cccc(-c2cc(-c3c[nH]nc3-c3ccccn3)ccn2)c1 [GW679395] and stop.
0

Specify %Inh for CN1C(=O)C(Nc2cc(Cl)c(O)c(Cl)c2)=C(c2ccc(Cl)cc2)C1=O [SB-404321] and stop.
17

Specify %Inh for Nc1ncnc2c1ncn2-c1ccc(Cl)cc1 [AH2635] and stop.
0

Specify %Inh for `CCc1ccc(-c2ccc3c(c2)-c2nn(C)cc2S(=O)(=O)N3C)cc1` and stop.
22

Specify %Inh for O=C1NC(=O)C(c2ccccc2)=C1Nc1cccc(O)c1 [SB-390534] and stop.
11

Specify %Inh for CCCC(=O)Nc1n[nH]c2ncc(-c3cccc4ccccc34)cc12 [SB-642057] and stop.
16

Specify %Inh for Nc1nccc2scc(-c3ccc4c(c3)CCN4C(=O)Cc3ccccc3)c12 [GSK2576924] and stop.
2

Specify %Inh for COc1cc2nccc(Nc3ccc(OCc4ccc(NC(C)=O)cc4)cc3)c2cc1OC.Cl [GW440135] and stop.
9
